I'd appreciate it if you could supply IC50 values for the items below.
- assayed-system: Human recombinant TDP1 (Homo sapiens)
- Sequence (Q9NUW8 whole entry): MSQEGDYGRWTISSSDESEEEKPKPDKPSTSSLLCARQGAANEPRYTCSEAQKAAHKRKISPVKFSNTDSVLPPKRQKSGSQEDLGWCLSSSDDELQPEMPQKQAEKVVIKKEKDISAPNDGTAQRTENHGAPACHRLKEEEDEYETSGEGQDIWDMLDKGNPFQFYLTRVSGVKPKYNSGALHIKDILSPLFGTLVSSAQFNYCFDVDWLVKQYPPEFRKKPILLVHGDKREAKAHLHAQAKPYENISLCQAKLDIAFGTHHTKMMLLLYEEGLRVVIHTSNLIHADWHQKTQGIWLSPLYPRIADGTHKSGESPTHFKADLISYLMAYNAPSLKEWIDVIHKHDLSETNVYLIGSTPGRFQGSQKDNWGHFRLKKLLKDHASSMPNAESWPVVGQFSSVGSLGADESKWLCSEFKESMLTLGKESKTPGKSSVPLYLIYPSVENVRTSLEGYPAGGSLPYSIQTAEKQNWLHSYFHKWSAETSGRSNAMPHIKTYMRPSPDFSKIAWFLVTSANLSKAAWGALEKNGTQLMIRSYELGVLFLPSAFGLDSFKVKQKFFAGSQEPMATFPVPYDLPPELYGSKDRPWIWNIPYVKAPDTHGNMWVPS
- protocol-notes: Real-time oligonucleotide biosensor assay of TDP1 activity
- reported-conditions: 1.5 nM TDP1, 50 nM biosensor, 26 °C, at least three experiments; read-out: TDP1 inhibitory activity IC50

Request: What measured IC50 goes with O=C1NC(=O)/C(=C/c2cccs2)S1 [Compound 18c] ?
Response: > 100 µM

Request: What measured IC50 goes with O=C1S/C(=C\c2ccco2)C(=O)N1Cc1ccccc1 [Compound 19a] ?
Response: > 100 µM

Request: What measured IC50 goes with O=C1NC(=O)/C(=C/c2ccc(Br)s2)S1 [Compound 18b] ?
Response: 1.1 µM

Request: What measured IC50 goes with CC1=CC[C@@H](C/C=C2\SC(=O)NC2=O)C1(C)C [Compound 18g] ?
Response: > 100 µM

Request: What measured IC50 goes with CC1(C)[C@H]2CC=C(CCN3C(=O)S/C(=C\c4cccs4)C3=O)[C@@H]1C2 [Compound 21c] ?
Response: > 100 µM
